- tested system: T1, cIL2Rg-Fc (lot#P210115SV5) (cynomolgus, UniProt A0A2K5VGJ6 23-262)
- T1 construct: Named only by lot number; also called cynomolgus IL2Rg-Fc; not shown: Fc of the fusion protein
- T1 sequence: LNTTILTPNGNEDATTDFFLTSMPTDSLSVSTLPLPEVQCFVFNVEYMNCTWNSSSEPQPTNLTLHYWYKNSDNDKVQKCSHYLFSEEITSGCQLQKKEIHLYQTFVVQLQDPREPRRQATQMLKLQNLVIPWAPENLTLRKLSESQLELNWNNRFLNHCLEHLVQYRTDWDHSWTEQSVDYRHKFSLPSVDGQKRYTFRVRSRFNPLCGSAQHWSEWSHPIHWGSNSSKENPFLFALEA
- measurement notes: SPR (Biacore T200); ratio experimental/calculated Rmax
Reported Surface Activity values for a set of binders
# number only, unit % dropped from output

See these solved cases before continuing.
# binder, readout name, assay value
data = [
    ("DR449(DR237-DR233) (bispecific antibody, Anti-hIL10Ra/hIL2Rg dual VHH with ASH6 handle; also called F3) QVQLQESGGGSVQAGGSLRLSCAASGYTYSMYCMGWFRQAPGKEREGVAQINSDGSTSYADSVKGRFTISKDNAKNTLYLQMNSLKPEDTAMYYCAADSRVYGGSWYERLCGPYTYEYNYWGQGTQVTVSSGGGSQVQLQESGGGSVQAGGSLRLSCTASGFTFDDSDMGWYRQAPGNECELVSTISSDGSTYYADSVKGRFTISQDNAKNTVYLQMNSLKPEDTAVYYCAAEPRGYYSNYGGRRECNYWGQGTQVTVSSASHHHHHH", "Surface Activity", 1),
    ("DR392(DR229-DR236) (bispecific antibody, Anti-hIL10Ra/hIL2Rg dual VHH with ASH6 handle; also called A7) QVQLQESGGGLVQPGGSLRLSCTASGFSFSSYPMTWARQAPGKGLEWVSTIASDGGSTAYAASVEGRFTISRDNAKSTLYLQLNSLKTEDTAMYYCTKGYGDGTPAPGQGTQVTVSSGGGSQVQLQESGGGSVQAGGSLRLSCAASRFTYSSYCMGWFRQAPGKEREGVASIDSDGSTSYTDSVKGRFTISKDNAKNTLYLQMNSLKPEDTAMYYCALDLMSTVVPGFCGFLLSAGMDYWGKGTQVTVSSASHHHHHH", "Surface Activity", 1),
]

IN: Input DR395(DR229-DR239) (bispecific antibody, Anti-hIL10Ra/hIL2Rg dual VHH with ASH6 handle; also called A2) QVQLQESGGGLVQPGGSLRLSCTASGFSFSSYPMTWARQAPGKGLEWVSTIASDGGSTAYAASVEGRFTISRDNAKSTLYLQLNSLKTEDTAMYYCTKGYGDGTPAPGQGTQVTVSSGGGSQVQLQESGGGSVQAGGSLRLSCTVSGYTYSSNCMGWFRQAPGKEREGVATIYTGGGNTYYADSVKGRFTISQDNAKNTVYLQMNNLKPEDTAMYYCAAEPLSRVYGGSCPTPTFDYWGQGTQVTVSSASHHHHHH , output reported Surface Activity.
OUT: 2

IN: Determine from records and report Surface Activity for DR437(DR235-DR233) (bispecific antibody, Anti-hIL10Ra/hIL2Rg dual VHH with ASH6 handle; also called D6) QVQLQESGGGSVQAGGSLRLSCAASRYLYSIDYMAWFRQSPGKEREPVAVIYTASGATFYPDSVKGRFTISQDNAKMTVYLQMNSLKSEDTAMYYCAAVRKTDSYLFDAQSFTYWGQGTQVTVSSGGGSQVQLQESGGGSVQAGGSLRLSCTASGFTFDDSDMGWYRQAPGNECELVSTISSDGSTYYADSVKGRFTISQDNAKNTVYLQMNSLKPEDTAVYYCAAEPRGYYSNYGGRRECNYWGQGTQVTVSSASHHHHHH
OUT: 1

IN: Kindly indicate its recorded Surface Activity. Item: DR444(DR236-DR234) (bispecific antibody, Anti-hIL10Ra/hIL2Rg dual VHH with ASH6 handle; also called E8) QVQLQESGGGSVQAGGSLRLSCAASRFTYSSYCMGWFRQAPGKEREGVASIDSDGSTSYTDSVKGRFTISKDNAKNTLYLQMNSLKPEDTAMYYCALDLMSTVVPGFCGFLLSAGMDYWGKGTQVTVSSGGGSQVQLQESGGGSVQAGGSLRLSCVASGYTFSSYCMGWFRQAPGKEREGVAALGGGSTYYADSVKGRFTISQDNAKNTLYLQMNSLKPEDTAMYYCAAAWVACLEFGGSWYDLARYKHWGQGTQVTVSSASHHHHHH
OUT: 2

IN: In one line, give reported Surface Activity of the entry DR441(DR236-DR231) (bispecific antibody, Anti-hIL10Ra/hIL2Rg dual VHH with ASH6 handle; also called F1) QVQLQESGGGSVQAGGSLRLSCAASRFTYSSYCMGWFRQAPGKEREGVASIDSDGSTSYTDSVKGRFTISKDNAKNTLYLQMNSLKPEDTAMYYCALDLMSTVVPGFCGFLLSAGMDYWGKGTQVTVSSGGGSQVQLQESGGGSVQAGGSLRLSCTASGFTFDDREMNWYRQAPGNECELVSTISSDGSTYYADSVKGRFTISQDNAKNTVYLQMDSVKPEDTAVYYCAADFMIAIQAPGAGCWGQGTQVTVSSASHHHHHH .
OUT: 1

IN: Retrieve Surface Activity measured for DR438(DR235-DR234) (bispecific antibody, Anti-hIL10Ra/hIL2Rg dual VHH with ASH6 handle; also called D12) QVQLQESGGGSVQAGGSLRLSCAASRYLYSIDYMAWFRQSPGKEREPVAVIYTASGATFYPDSVKGRFTISQDNAKMTVYLQMNSLKSEDTAMYYCAAVRKTDSYLFDAQSFTYWGQGTQVTVSSGGGSQVQLQESGGGSVQAGGSLRLSCVASGYTFSSYCMGWFRQAPGKEREGVAALGGGSTYYADSVKGRFTISQDNAKNTLYLQMNSLKPEDTAMYYCAAAWVACLEFGGSWYDLARYKHWGQGTQVTVSSASHHHHHH and print it.
OUT: 1

IN: Tell me Surface Activity reported for DR465(DR240-DR231) (bispecific antibody, Anti-hIL10Ra/hIL2Rg dual VHH with ASH6 handle; also called H1) QVQLQESGGGSVQAGGSLRLSCGASGYTYSSYCMGWFRQVPGKEREGVAVIDSDGSTSYADSVKGRFTISKDNGKNTLYLQMNSLKPEDTAMYYCAADLGHYRPPCGVLYLGMDYWGKGTQVTVSSGGGSQVQLQESGGGSVQAGGSLRLSCTASGFTFDDREMNWYRQAPGNECELVSTISSDGSTYYADSVKGRFTISQDNAKNTVYLQMDSVKPEDTAVYYCAADFMIAIQAPGAGCWGQGTQVTVSSASHHHHHH
OUT: 1

IN: Please report the measured Surface Activity for DR471(DR241-DR231) (bispecific antibody, Anti-hIL10Ra/hIL2Rg dual VHH with ASH6 handle; also called G3) QVQLQESGGGSVQAGGSLRLSCAASGYSNCSYDMTWYRQAPGKEREFVSAIHSDGSTRYADSVKGRFFISQDNAKNTVYLQMNSLKPEDTAMYYCKTDPLHCRAHGGSWYSVRANYWGQGTQVTVSSGGGSQVQLQESGGGSVQAGGSLRLSCTASGFTFDDREMNWYRQAPGNECELVSTISSDGSTYYADSVKGRFTISQDNAKNTVYLQMDSVKPEDTAVYYCAADFMIAIQAPGAGCWGQGTQVTVSSASHHHHHH
OUT: 1
